The reported numbers originate from PubChem BioAssay (NCI).

# Tested on: NCI/ADR-RES ovarian
# measurement-protocol: NCI-60 one-dose screen, 48 h
# condition-set: 10 µM unless noted
# Procedure: Growth inhibition of the NCI/ADR-RES human […] tumor cell line is measured as a screen for anti-cancer activity. Cells are grown in 96 well plates and exposed to the test compound for 48 hours. Compounds are tested at a single concentration, which is 10^-5 M for most compounds. The reported endpoint is percent growth (GI% or GIPRCNT), where numbers from 0 - 100% represent growth inhibition, and numbers from -100% - 0 represent cell death. For example, a value of 40 represents 60% growth inhibition. […]
The panel holds about 83,000 compounds, 20% with a hit somewhere; the sample as a whole holds those more often. Active and inactive are the calls of the source. Rule for the calls: active = growth percent below 10; inactive = the rest.
Your response should consist of one outcome taken from Yes (active), No (inactive)

I'd appreciate the recorded outcome for `O=C1/C(=C/C=C/c2ccco2)SC(=S)N1C1CCCCC1` from this test.
No

I'd appreciate the recorded outcome for Nc1nc(N)c2c(n1)NC(c1ccc(Cl)cc1)CC(c1ccc(Nc3nc(NCCO)nc(N4CCOCC4)n3)cc1)=N2 (centres undefined) from this test.
No

I'd appreciate the recorded outcome for `COc1cc(-c2nnc(SCc3ccc(O)c4ncccc34)n2-c2ccccc2)cc(OC)c1OC` from this test.
Yes

I'd appreciate the recorded outcome for O=S(=O)(NC1c2ccccc2C[C@H]1O)c1ccc(Cl)cc1Cl (some centres undefined) from this test.
No

I'd appreciate the recorded outcome for COC(=O)c1[nH]nc2c1C1(C(=O)N(C)c3ccccc31)C(C#N)=C(N)O2 (centres undefined) from this test.
No

I'd appreciate the recorded outcome for `COc1cccc(N2CCN(c3ncnc4c3[nH]c3ccc(F)cc34)C[C@H]2C)c1` from this test.
No

I'd appreciate the recorded outcome for `Cc1cc(S(=O)(=O)N(C)C)cc(NCC(=O)NC(=O)NCC(C)C)c1C` from this test.
No

I'd appreciate the recorded outcome for `COc1ccc(-n2c(SCc3n[nH]c(=S)o3)nc3ccc(Cl)cc3c2=O)cc1` from this test.
No

I'd appreciate the recorded outcome for `O=C(CSc1nc2ccccc2c(=O)n1-c1ccccc1)Nc1cccc(C(=O)/C=C/c2ccccc2)c1` from this test.
No

---

# Test system: K-562 leukemia
# measurement-protocol: NCI-60 one-dose screen, 48 h (100 = growth as untreated, 0 = no growth, -100 = all killed)
# condition-set: 10 µM unless noted
Compounds without any hit were thinned out: in the full panel of roughly 83,000, 20% have a hit.
Record form. Attribute: growth. Fill in for each entry.
Respond numerically; units are % and should not be typed.

Identify measured growth associated with `C#CCn1cccc1CNc1ccc(OC)cc1`
-46.9

Identify measured growth associated with COC(=O)/C=C/c1c(C2(C)NC(=O)c3ccccc3N2)c(=O)oc2ccc(Cl)cc12 (centres undefined)
105

Identify measured growth associated with `O=c1[nH]c(Sc2sc3ccc(Cl)cc3c2CBr)nc(=S)[nH]1`
12

Identify measured growth associated with CCCn1cnc2c(c1=N)C(c1ccc(F)cc1)c1sc3c(C)cccc3c1O2 (centres undefined)
5.29

Identify measured growth associated with `COc1cc2oc(-c3cccc(NC(=O)c4cc(N)ccc4Cl)c3)cc(=O)c2c(OC)c1OC`
83.7

Identify measured growth associated with `C#C[C@]1(O)CC[C@H]2[C@@H]3CC=C4c5sc(-c6ccc7c(c6)OCO7)nc5CC[C@]4(C)[C@H]3CC[C@@]21C`
32.6

Identify measured growth associated with `CC(=O)c1cc(C(=O)c2ccc(Br)cc2)n2cc(C)cc(C)c12`
93.1

Identify measured growth associated with `COc1ccc2[nH]cc(/C=N/Nc3nc4ccccc4s3)c2c1`
24.3

Identify measured growth associated with CCN(CC)c1ccc2c(c1)Oc1nc(N)c(C#N)c(N)c1C2Sc1ccc(C)cc1 (centres undefined)
0.301

Identify measured growth associated with `Cn1ccnc1C(=O)/C=C/c1ccc(NC(=O)c2c(F)c(F)c(F)c(F)c2F)cc1`
80.7

Identify measured growth associated with Cc1ccc2sc3c(c2c1)OC(N)=C(C#N)C3c1cccc(F)c1 (centres undefined)
7.14

Identify measured growth associated with `O=C1[C@H]2Cc3c([nH]c4ccccc34)[C@@H](c3c(Cl)cccc3Cl)N2C(=O)CN1C1CCN(CC2CCCCC2)CC1`
9.76

Identify measured growth associated with `Cn1cc(-c2cc(N)n3nc(-c4cn(C)c5ccccc45)cc3n2)c2ccccc21`
7.81

Identify measured growth associated with `Cc1cccc(/C=C/C(=O)Nc2ncc(Cc3cccc(C)c3)s2)c1`
11.9

Identify measured growth associated with `C=C(C)[C@@H]1CC[C@]2(C(=O)NCCCCCN(CCC#N)CCC#N)CC[C@]3(C)[C@H](CC[C@@H]4[C@@]5(C)CCC(=O)C(C)(C)[C@@H]5CC[C@]43C)[C@@H]12`
96.9

Identify measured growth associated with `Oc1cccc2ccc(-c3nnc(SCc4ccc(O)c5ncccc45)n3-c3ccccc3)nc12`
12.4

Identify measured growth associated with `COc1ccc2c(c1)c(CC(=O)[Se]CC(=O)O)c(C)n2C(=O)c1ccc(Cl)cc1`
95.8

Identify measured growth associated with `Clc1nc2ccccc2nc1-c1nnc(C2CCCCC2)o1`
80.9

Identify measured growth associated with CCCn1cnc2c(c1=N)C(c1ccc(Cl)cc1)c1sc3c(CC)cccc3c1O2 (centres undefined)
11.3
